Assay: reversers of MRP drug resistance, dose response, cell-based (AID 741)
Details: MRP-overexpressing cells, viability with/without cytotoxic drug; measured here: slope difference tox minus reversal, stronger effect = higher value
Records with an inconclusive call do not appear.
parameter-measured: slope difference

{"molecule": "COc1ccccc1Nc1nc(N)nc(CN2CCOCC2)n1", "reported": -0.589}
{"molecule": "Cc1nc(C)c(C)nc1C", "reported": -0.412}
{"molecule": "CS(=O)(=O)Nc1ccc([N+](=O)[O-])cc1Oc1ccccc1", "reported": -0.667}
{"molecule": "CCCNc1nc2c(c(=O)n(C)c(=O)n2C)n1Cc1ccc(F)cc1", "reported": -0.107}
{"molecule": "CCN(C(=O)c1cn(C)c(=O)c2cc(OC)c(OC)cc12)c1cc(OC)ccc1OC", "reported": 4.18}
{"molecule": "CC1(C)CC(=O)C2=C(C1)N(c1cccc(O)c1)C1=C(C2)C(=O)CC(C)(C)C1", "reported": 3.34}
{"molecule": "CCCn1c(=O)[nH]c(=O)c2[nH]cnc21", "reported": -0.568}
{"molecule": "COc1ccc(/C=C/C(=O)Nc2ccccc2C(=O)O)cc1OC", "reported": -1.07}
{"molecule": "Cc1ccc(CN(C(=O)c2ccco2)C(C(=O)NC2CCCC2)c2ccc(N3CCOCC3)cc2)cc1 (stereo unspecified)", "reported": 2.19}
{"molecule": "CCCc1cc(Nc2c(C)n(C)n(-c3ccccc3)c2=O)n2c(nc3ccccc32)c1C#N", "reported": 4.27}
{"molecule": "C=CCN1C(=O)/C(=C2/Sc3ccccc3N2C)SC1=Nc1c(C)n[nH]c1C", "reported": 4.41}

---

Test: reversers of MRP drug resistance, dose response, cell-based (AID 741)
Details: MRP-overexpressing cells, viability with/without cytotoxic drug; measured here: viability series, compound alone, at 10 µM, stronger effect = lower value
Inconclusive results are not listed.

{"compound": "c1ccc(N2CCN(c3ccccc3)C2c2ccncc2)cc1", "viability [%]": 82.9}
{"compound": "CC1CN(c2nc3ccccn3c(=O)c2/C=C(\\C#N)S(=O)(=O)c2ccccc2)CC(C)O1 (stereo unspecified)", "viability [%]": 93.3}
{"compound": "O=C(NCCCn1ccnc1)c1sc2cccc(F)c2c1Cl", "viability [%]": 96.9}
{"compound": "CCOC(=O)Nc1ccc(S(=O)(=O)Nc2nccc(C)n2)cc1", "viability [%]": 97.4}
{"compound": "CN1C(C(=O)Nc2ccccn2)=C(O)c2ccccc2S1(=O)=O", "viability [%]": 92.3}
{"compound": "CCCNS(=O)(=O)c1ccc(NC(=O)c2ccccn2)cc1", "viability [%]": 99.5}

---

Test: reversers of MRP drug resistance, dose response, cell-based (AID 741)
Details: MRP-overexpressing cells, viability with/without cytotoxic drug
Records with an inconclusive call do not appear. Activity calls are given as the source filed them. Cut-off read from the data, not from the text of the source: active = toxicity enhancement factor above about 0.054; inconclusive = between about 0.00067 and that limit; inactive = weaker than that.
Possible outcomes: y for active, n for inactive

{"compound": "Cc1ccc(CN(C(=O)c2ccco2)C(C(=O)NC2CCCC2)c2ccc(N3CCOCC3)cc2)cc1 (stereo unspecified)", "group-label": "y"}
{"compound": "CC(=O)Nc1ccc(S(=O)(=O)NCCC(=O)NCCc2ccc(F)cc2)cc1", "group-label": "n"}
{"compound": "Cc1ccc(N2C(N)=C(C#N)C(c3cccnc3)C3=C2CC(C)(C)CC3=O)cc1 (stereo unspecified)", "group-label": "y"}
{"compound": "CSc1nnc(-c2cc3ccccc3cc2O)n1C", "group-label": "n"}
{"compound": "Cc1ccc(-n2ncc3c(N4CCN(c5ccccc5)CC4)ncnc32)c(C)c1", "group-label": "n"}
{"compound": "CCCn1c(=O)[nH]c(=O)c2[nH]cnc21", "group-label": "n"}
{"compound": "COC(=O)Nc1ccc(S(=O)(=O)N2c3ccccc3CCC2C)cc1 (stereo unspecified)", "group-label": "n"}
{"compound": "O=C(O)c1ccc(-n2nnnc2SCc2ccccc2)cc1", "group-label": "n"}
{"compound": "CCOC(=O)c1c(C)[nH]c(N=Nc2ccc(C)cc2)c1C", "group-label": "n"}
{"compound": "CS(=O)(=O)Nc1ccc([N+](=O)[O-])cc1Oc1ccccc1", "group-label": "n"}
{"compound": "CN1C(C(=O)Nc2ccccn2)=C(O)c2sccc2S1(=O)=O", "group-label": "n"}

---

Assay: reversers of MRP drug resistance, dose response, cell-based (AID 741)
Details: MRP-overexpressing cells, viability with/without cytotoxic drug; measured here: slope difference tox minus reversal, stronger effect = higher value
Records with an inconclusive call do not appear.

{"molecule": "CCN(CC)C(=O)CSc1nc2c(sc(=S)n2-c2ccccc2)c(=O)n1Cc1ccco1", "slope difference": 3.95}
{"molecule": "c1ccc(N2CCN(c3ccccc3)C2c2ccncc2)cc1", "slope difference": 3.19}
{"molecule": "c1ccc(-c2nc(N3CCOCC3)c3ccccc3n2)nc1", "slope difference": -2.79}
{"molecule": "COc1ccc(NC(=O)C2C3C=CC(C3)C2C(=O)NCc2ccccn2)c(OC)c1 (stereo not drawn)", "slope difference": -1.73}
{"molecule": "Cc1cccc2cc(CN(Cc3nnnn3C3CCCCC3)C3CCCC3)c3nnnn3c12", "slope difference": 3.91}
{"molecule": "O=C(COc1ccccc1)N1CCN(c2ncnc3c2cnn3-c2ccccc2)CC1", "slope difference": -0.402}
{"molecule": "O=C(Cc1cccs1)N1CCC(c2nc3c(nnn3Cc3ccccc3Cl)c(=O)[nH]2)CC1", "slope difference": -0.454}
{"molecule": "CC(C(=O)O)c1cccc(C(=O)c2ccccc2)c1 (stereo not drawn)", "slope difference": -1.03}
{"molecule": "CSc1nnc(-c2cc3ccccc3cc2O)n1C", "slope difference": -0.153}
{"molecule": "CCCNS(=O)(=O)c1ccc(NC(=O)c2ccccn2)cc1", "slope difference": -0.0969}
{"molecule": "O=C(CSc1nnnn1-c1ccccc1)N1CCc2ccccc21", "slope difference": -1.04}
{"molecule": "Cc1ccc(/C=N/Nc2nc(Cl)c(Cl)cc2Cl)s1", "slope difference": -0.0549}
{"molecule": "CC1(C)CC(=O)C2=C(C1)N(c1ccccc1)C(N)=C(C#N)C2c1ccccc1 (stereo not drawn)", "slope difference": 3.21}
{"molecule": "COc1ccc(N2C(=O)C(Cl)=C(N3CCCC3)C2=O)cc1", "slope difference": -0.145}
{"molecule": "CC(C(=O)O)c1ccc(-c2ccccc2)c(F)c1 (stereo not drawn)", "slope difference": -0.412}
{"molecule": "COc1ccc(N2C(N)=C(C#N)C(c3cccnc3)C3=C2CC(C)(C)CC3=O)cc1 (stereo not drawn)", "slope difference": 2.07}
{"molecule": "O=C(O)c1ccccc1O", "slope difference": -0.779}
{"molecule": "CCCN1C2=C(C(=O)CC(C)(C)C2)C(c2ccc(F)cc2)C2=C1c1ccccc1C2=O (stereo not drawn)", "slope difference": 3.28}
{"molecule": "CCCCNc1c2c3c(cccc3n(C)c1=O)C(=O)c1ccccc1-2", "slope difference": -4.84}
{"molecule": "Cc1cc(C)cc(OCc2nnc(SCC(=O)c3ccc(Br)cc3)o2)c1", "slope difference": -0.893}
{"molecule": "Cc1ccc(-n2ncc3c(N4CCN(c5ccccc5)CC4)ncnc32)c(C)c1", "slope difference": -1.27}
{"molecule": "COC(=O)Nc1ccc(S(=O)(=O)Nc2cccc3ccccc23)cc1", "slope difference": -0.0221}
{"molecule": "COc1ccc(C(=O)Nc2nc3ccccc3[nH]2)cc1OC", "slope difference": -0.0153}

---

Test: reversers of MRP drug resistance, dose response, cell-based (AID 741)
Conditions: MRP-overexpressing cells, viability with/without cytotoxic drug; measured here: slope difference tox minus reversal, stronger effect = higher value
Records with an inconclusive call do not appear.
Okay, here is how we bin by slope difference: lowest = under -0.4, middle = from -0.4 up to 0.0009, highest = 0.0009 and over

{"molecule": "O=C(CSc1nnc(CN2CCOCC2)n1-c1ccc(Cl)cc1)Nc1cc(Cl)ccc1O", "group-label": "highest"}
{"molecule": "O=C(O)Cc1ccc(-c2ccccc2)cc1", "group-label": "middle"}
{"molecule": "CCOc1nc2c(c(=O)n(C)c(=O)n2C)n1Cc1ccccc1Cl", "group-label": "lowest"}
{"molecule": "N#CC1=C(N)N(c2ccccc2)C2=C(C(=O)CCC2)C1c1ccccc1 (configuration not stated)", "group-label": "highest"}
{"molecule": "CC(C)CCn1c(=O)c2ccccc2n2c(CN(C)Cc3ccccc3)nnc12", "group-label": "highest"}
{"molecule": "CCOC(=O)/C(C#N)=C/c1cc(C)n(-c2ccc(C)cc2)c1C", "group-label": "middle"}
{"molecule": "Cc1ccc(Cl)c(Nc2ccccc2C(=O)O)c1Cl", "group-label": "lowest"}
{"molecule": "CN1C(C(=O)Nc2ccccn2)=C(O)c2sccc2S1(=O)=O", "group-label": "lowest"}
{"molecule": "c1ccc2c(c1)nc1n2CN(Cc2ccc3c(c2)OCO3)CN1", "group-label": "middle"}
{"molecule": "CC1CN(c2nc3ccccn3c(=O)c2/C=C(\\C#N)S(=O)(=O)c2ccccc2)CC(C)O1 (configuration not stated)", "group-label": "highest"}
{"molecule": "CC(Cc1ccc(O)c(O)c1)C(C)Cc1ccc(O)c(O)c1 (configuration not stated)", "group-label": "lowest"}
{"molecule": "Cc1ccc(Cn2c(N3CCCCCC3)nc3c2c(=O)[nH]c(=O)n3C)cc1", "group-label": "lowest"}
{"molecule": "O=C1Nc2cc(C(=O)N3CCN(Cc4ccccc4)CC3)ccc2SC1N1CCOCC1 (configuration not stated)", "group-label": "middle"}
{"molecule": "CC(C(=O)O)c1ccc(N2Cc3ccccc3C2=O)cc1 (configuration not stated)", "group-label": "middle"}
{"molecule": "COc1ccc(Cl)cc1C(=O)Nc1ccccc1N1CCN(C(=O)C(C)C)CC1", "group-label": "middle"}
{"molecule": "Cc1ccc(N2C(N)=C(C#N)C(c3cccnc3)C3=C2CCCC3=O)cc1 (configuration not stated)", "group-label": "highest"}
{"molecule": "Cc1cccc(Cn2c(NCC(C)O)nc3c2c(=O)n(C)c(=O)n3C)c1 (configuration not stated)", "group-label": "lowest"}
{"molecule": "COc1ccc(C)cc1-n1c(N)c(C#N)c(C#N)c1-c1ccc(OC)c(OC)c1OC", "group-label": "highest"}
{"molecule": "Cc1ccc(/C=N/Nc2ncc(Cl)cc2Cl)s1", "group-label": "lowest"}
{"molecule": "C=CCSc1nnc2n(CCc3ccccc3)c(=O)c3c4c(sc3n12)COC(C)(C)C4", "group-label": "highest"}
{"molecule": "CN1C(=O)C(CC(=O)Nc2ccc3c(c2)Cc2ccccc2-3)N(C)C1=O (configuration not stated)", "group-label": "middle"}
